# Dmax per record follows
- target-entity: SMARCA4 (Homo sapiens, UniProt P51532)
- Construct: SMARCA2/SMARCA4 protein degradation selectivity in MV4-11 cells; endogenous in cells; host or cells: MV4-11
- Sequence (P51532 whole entry): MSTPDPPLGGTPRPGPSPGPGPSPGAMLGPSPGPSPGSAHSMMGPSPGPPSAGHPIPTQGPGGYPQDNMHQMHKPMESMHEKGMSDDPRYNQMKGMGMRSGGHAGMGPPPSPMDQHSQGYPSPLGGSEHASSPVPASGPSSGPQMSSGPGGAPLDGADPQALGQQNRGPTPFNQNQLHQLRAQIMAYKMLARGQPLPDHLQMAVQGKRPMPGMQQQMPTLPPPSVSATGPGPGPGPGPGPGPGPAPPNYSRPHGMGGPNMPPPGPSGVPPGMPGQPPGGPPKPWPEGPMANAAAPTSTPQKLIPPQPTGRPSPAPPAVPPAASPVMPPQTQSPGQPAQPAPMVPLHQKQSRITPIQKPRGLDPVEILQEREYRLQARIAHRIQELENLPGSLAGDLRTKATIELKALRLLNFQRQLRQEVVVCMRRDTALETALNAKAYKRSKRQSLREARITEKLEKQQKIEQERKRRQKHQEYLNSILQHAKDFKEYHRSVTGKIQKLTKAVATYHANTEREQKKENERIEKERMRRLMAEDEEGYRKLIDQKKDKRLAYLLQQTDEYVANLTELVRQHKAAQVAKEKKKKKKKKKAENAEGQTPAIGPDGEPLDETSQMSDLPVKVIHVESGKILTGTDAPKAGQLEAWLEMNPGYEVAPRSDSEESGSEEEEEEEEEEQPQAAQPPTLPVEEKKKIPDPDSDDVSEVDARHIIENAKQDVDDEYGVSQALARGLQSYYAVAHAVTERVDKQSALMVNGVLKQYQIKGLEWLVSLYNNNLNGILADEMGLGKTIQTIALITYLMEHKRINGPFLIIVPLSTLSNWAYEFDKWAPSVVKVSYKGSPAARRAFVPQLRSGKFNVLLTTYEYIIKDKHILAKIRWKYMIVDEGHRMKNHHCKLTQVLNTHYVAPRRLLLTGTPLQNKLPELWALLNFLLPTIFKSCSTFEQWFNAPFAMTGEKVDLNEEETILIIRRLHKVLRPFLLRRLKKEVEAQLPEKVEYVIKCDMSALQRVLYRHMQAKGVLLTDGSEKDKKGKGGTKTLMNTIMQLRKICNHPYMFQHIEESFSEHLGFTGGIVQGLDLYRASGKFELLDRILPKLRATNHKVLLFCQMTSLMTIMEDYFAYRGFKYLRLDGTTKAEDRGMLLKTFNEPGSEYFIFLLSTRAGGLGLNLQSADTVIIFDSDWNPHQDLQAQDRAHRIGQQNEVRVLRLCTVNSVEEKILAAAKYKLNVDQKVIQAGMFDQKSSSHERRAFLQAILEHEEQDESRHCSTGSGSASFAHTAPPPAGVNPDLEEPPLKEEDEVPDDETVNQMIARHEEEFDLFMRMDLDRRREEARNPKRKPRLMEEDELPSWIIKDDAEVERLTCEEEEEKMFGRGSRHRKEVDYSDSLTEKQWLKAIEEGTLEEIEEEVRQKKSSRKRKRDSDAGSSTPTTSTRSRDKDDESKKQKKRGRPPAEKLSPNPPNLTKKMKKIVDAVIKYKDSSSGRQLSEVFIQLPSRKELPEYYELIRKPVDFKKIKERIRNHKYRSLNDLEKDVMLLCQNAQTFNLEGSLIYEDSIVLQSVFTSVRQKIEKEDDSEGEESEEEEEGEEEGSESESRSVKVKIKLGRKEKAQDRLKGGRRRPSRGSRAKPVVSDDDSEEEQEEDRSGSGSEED
- experimental-protocol: SMARCA4 Western blot degradation in MV4-11 cells
- Format: cell-based
- condition-info: MV4-11, MV4-11 cells, 24 h; read-out: SMARCA4 MSD MV411 degradation 24 h: average Dmax %

Study these solved cases before continuing.
>  <compound>
C#Cc1ccc(CNC(=O)[C@@H]2C[C@@H](O)CN2C(=O)[C@@H](NC(=O)N2CC3(CC(N4CCC(c5cnc(N6CCc7[nH]c8nnc(-c9ccccc9O)cc8c7[C@@H]6C)s5)CC4)C3)C2)C(C)(C)C)cc1

>  <measured-parameter>
Dmax

>  <reading>
70 to 90%

$$$$
>  <compound>
Cc1ncsc1-c1ccc(CNC(=O)[C@@H]2C[C@@H](O)CN2C(=O)C(c2cc(N3CCC4(CC3)CC(N3CCC(c5cnc(N6CCc7[nH]c8nnc(-c9ccccc9O)cc8c7[C@@H]6C)nc5)CC3)C4)no2)C(C)C)cc1 (single isomer, unassigned)

>  <measured-parameter>
Dmax

>  <reading>
> 90%

$$$$
>  <compound>
C#Cc1ccc(CNC(=O)[C@@H]2C[C@@H](O)CN2C(=O)[C@@H](NC(=O)N2CC3(CC(N4CCC(c5cnc(N6CCc7[nH]c8nnc(-c9ccccc9O)cc8c7[C@@H]6CO)nc5)CC4)C3)C2)C(C)(C)C)cc1

>  <measured-parameter>
Dmax

>  <reading>
70 to 90%

$$$$

// moving on: another record for Dmax
Request: // lookup Dmax for C#Cc1ccc(CNC(=O)[C@@H]2C[C@@H](O)CN2C(=O)[C@@H](NC(=O)N2CC3(CC(N4CC(N5CCC(c6cnc(N7CCc8[nH]c9nnc(-c%10ccccc%10O)cc9c8[C@H]7C)nc6)CC5)C4)C3)C2)C(C)(C)C)cc1
Result: 50 to 70%

----------
# Dmax per record follows
- target-entity: SMARCA4 (Homo sapiens)
- Construct: SMARCA2/SMARCA4 protein degradation selectivity in MV4-11 cells; endogenous in cells; host or cells: MV4-11
- experimental-protocol: SMARCA4 Western blot degradation in MV4-11 cells
- Type: cell-based
- condition-info: MV4-11, MV4-11 cells, 24 h; read-out: SMARCA4 MSD MV411 degradation 24 h: average Dmax %

Study these solved cases before continuing.
>  <compound>
C#Cc1ccc(CNC(=O)[C@@H]2C[C@@H](O)CN2C(=O)[C@@H](NC(=O)N2CCN(CC3CCN([C@H]4CC[C@@H](N5CCN6c7cc(-c8ccccc8O)nnc7NC[C@H]6C5)CC4)CC3)CC2)C(C)(C)C)cc1 [I-216]

>  <measured-parameter>
Dmax

>  <reading>
< 50%

$$$$
>  <compound>
C#Cc1ccc(CNC(=O)[C@@H]2C[C@@H](O)CN2C(=O)[C@H](NC(=O)[C@H]2CCC3(CC2)C[C@H](N2CCC(c4cnc(N5CCN6c7cc(-c8ccccc8O)nnc7NC[C@H]6C5)nc4)CC2)C3)C(C)(C)CCO)cc1 (single isomer, unassigned) [I-248]

>  <measured-parameter>
Dmax

>  <reading>
< 50%

$$$$
>  <compound>
C#Cc1ccc(CNC(=O)[C@@H]2C[C@@H](O)CN2C(=O)[C@@H](NC(=O)N2CC3(CC(N4CCC(c5cnc(N6CCc7[nH]c8nnc(-c9ccccc9O)cc8c7[C@H]6C)nc5)CC4)C3)C2)C(C)(C)C)c(C)c1 [I-270]

>  <measured-parameter>
Dmax

>  <reading>
> 90%

$$$$

// moving on: another record for Dmax
Request: // lookup Dmax for C#Cc1ccc(CNC(=O)[C@@H]2C[C@@H](O)CN2C(=O)[C@@H](NC(=O)N2CC3(CC(N4CC5(CC(N6CCC(N7CCc8[nH]c9nnc(-c%10ccccc%10O)cc9c8[C@H]7C)CC6)C5)C4)C3)C2)C(C)(C)C)cc1 [I-205]
Result: < 50%

----------
# DC50 per record follows
- target-entity: SMARCA2 (Homo sapiens, UniProt P51531)
- Sequence (P51531 whole entry): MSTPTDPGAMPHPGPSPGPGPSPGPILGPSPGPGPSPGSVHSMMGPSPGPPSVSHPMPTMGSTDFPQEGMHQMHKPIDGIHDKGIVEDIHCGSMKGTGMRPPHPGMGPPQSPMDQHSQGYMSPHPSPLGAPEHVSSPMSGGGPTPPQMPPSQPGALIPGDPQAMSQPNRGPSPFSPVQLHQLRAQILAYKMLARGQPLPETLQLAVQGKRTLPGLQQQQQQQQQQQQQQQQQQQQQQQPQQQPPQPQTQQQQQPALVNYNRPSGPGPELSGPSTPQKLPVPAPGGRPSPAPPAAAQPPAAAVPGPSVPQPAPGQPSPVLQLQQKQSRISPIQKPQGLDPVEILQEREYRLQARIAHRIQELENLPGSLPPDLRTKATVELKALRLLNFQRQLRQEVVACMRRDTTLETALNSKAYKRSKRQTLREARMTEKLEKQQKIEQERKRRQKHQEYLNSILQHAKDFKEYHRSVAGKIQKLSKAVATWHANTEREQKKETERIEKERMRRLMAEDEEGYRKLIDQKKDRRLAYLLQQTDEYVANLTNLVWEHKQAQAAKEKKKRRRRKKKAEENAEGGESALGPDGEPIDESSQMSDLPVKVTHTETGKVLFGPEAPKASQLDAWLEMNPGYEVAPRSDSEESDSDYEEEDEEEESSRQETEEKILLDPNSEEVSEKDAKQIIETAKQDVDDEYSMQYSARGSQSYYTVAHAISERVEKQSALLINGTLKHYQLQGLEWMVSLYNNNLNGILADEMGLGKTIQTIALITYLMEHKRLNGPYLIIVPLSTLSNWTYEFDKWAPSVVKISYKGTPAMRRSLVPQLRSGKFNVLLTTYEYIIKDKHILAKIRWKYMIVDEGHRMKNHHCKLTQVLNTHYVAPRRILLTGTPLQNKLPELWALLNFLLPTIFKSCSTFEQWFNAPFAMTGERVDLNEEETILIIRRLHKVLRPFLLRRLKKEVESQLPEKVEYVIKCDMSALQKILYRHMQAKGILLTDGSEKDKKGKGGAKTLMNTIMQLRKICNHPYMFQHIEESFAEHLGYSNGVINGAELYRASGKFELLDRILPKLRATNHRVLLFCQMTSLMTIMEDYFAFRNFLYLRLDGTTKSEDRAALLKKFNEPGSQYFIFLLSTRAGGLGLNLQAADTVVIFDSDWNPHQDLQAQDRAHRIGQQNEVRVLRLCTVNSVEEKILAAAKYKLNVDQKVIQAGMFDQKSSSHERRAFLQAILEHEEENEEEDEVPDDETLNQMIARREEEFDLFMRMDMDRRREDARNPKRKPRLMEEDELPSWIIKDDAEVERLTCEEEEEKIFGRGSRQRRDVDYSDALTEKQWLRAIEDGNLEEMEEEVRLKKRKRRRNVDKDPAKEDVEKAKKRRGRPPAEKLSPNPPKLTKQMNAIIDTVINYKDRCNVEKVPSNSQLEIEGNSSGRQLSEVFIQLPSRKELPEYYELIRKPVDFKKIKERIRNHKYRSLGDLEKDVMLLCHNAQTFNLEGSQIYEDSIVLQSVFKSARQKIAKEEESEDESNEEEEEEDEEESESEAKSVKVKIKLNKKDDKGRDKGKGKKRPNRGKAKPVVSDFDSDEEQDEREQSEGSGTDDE
- experimental-protocol: MSD SMARCA2 degradation in A549 cell line
- Format: cell-based
- condition-info: A549 cells, 24 h, read-out: SMARCA2 MSD A549 degradation 24 h: Average external-Abs DC50

>  <compound>
Cc1ncsc1-c1ccc(CNC(=O)[C@@H]2C[C@@H](O)CN2C(=O)[C@@H](NC(=O)[C@H]2CC3(CC[C@H](N4CCN(c5cnc(N6CCc7[nH]c8nnc(-c9ccccc9O)cc8c7[C@H]6C)nc5)CC4)CC3)C2)C(C)(C)C)cc1 (single isomer, unassigned) [I-78]

>  <target-entity>
SMARCA2 (Homo sapiens, UniProt P51531)

>  <measured-parameter>
DC50

>  <reading>
0.01 to 0.05 µM

$$$$
>  <compound>
C#Cc1ccc(CNC(=O)[C@@H]2C[C@@H](O)CN2C(=O)[C@@H](NC(=O)[C@H]2CCC3(CC2)C[C@H](N2CCC(N(C)CCN4CCN5c6cc(-c7ccccc7O)nnc6NC[C@H]5C4)CC2)C3)C(C)(C)C)cc1 (single isomer, unassigned) [I-247]

>  <target-entity>
SMARCA2 (Homo sapiens, UniProt P51531)

>  <measured-parameter>
DC50

>  <reading>
0.05 to 0.1 µM

$$$$
>  <compound>
Cc1ncsc1-c1ccc(CNC(=O)[C@@H]2C[C@@H](O)CN2C(=O)[C@@H](NC(=O)C2(F)CC2)C(C)(C)C)c(O[C@H]2CC[C@@H](N3CCC(c4cnc(N5CCc6[nH]c7nnc(-c8ccccc8O)cc7c6[C@H]5C)nc4)CC3)CC2)c1 (single isomer, unassigned) [I-31]

>  <target-entity>
SMARCA2 (Homo sapiens, UniProt P51531)

>  <measured-parameter>
DC50

>  <reading>
0.05 to 0.1 µM

$$$$

// moving on: another record for DC50
Request: Provide the documented DC50 with SMARCA2 (Homo sapiens, UniProt P51531) as the system for C#Cc1ccc(CNC(=O)[C@@H]2C[C@@H](O)CN2C(=O)[C@@H](NC(=O)N2CC3(CC(N4CCC(c5cnc(N6CCc7[nH]c8nnc(-c9ccccc9O)cc8c7[C@H]6CO)nc5)CC4)C3)C2)C(C)(C)C)c(Cl)c1 [I-318]
Result: 0.01 to 0.05 µM

----------
- target-entity: SMARCA4 (Homo sapiens)
- Construct: SMARCA2/SMARCA4 protein degradation selectivity in MV4-11 cells; endogenous in cells; host or cells: MV4-11
- experimental-protocol: SMARCA4 Western blot degradation in MV4-11 cells
- Assay type: cell-based
- condition-info: MV4-11 cells, 24 h; read-out: SMARCA4 MSD MV411 degradation 24 h: Mean external-Abs DC50
- Protocol: Example 11. SMARCA2 and SMARCA4 Western Blot MV4-11 Degradation Cells were seeded into 6-well plates (MV4-11:4×10^6 cells/well/1 ml) and 1 ml of 2× compound solution was added into the well to make the final concentration and the plates were mixed well and incubated for 24 hours (No cytotoxicity was observed). The cell were collected with media and spun at 3000 rpm for 5 minutes. […] The membrane was washed three times with 5 minutes each and lastly the LiCOR was read. […]
# DC50 per record follows

>  <compound>
Cc1ncsc1-c1ccc(CNC(=O)[C@@H]2C[C@@H](O)CN2C(=O)[C@@H](NC(=O)C2(F)CC2)C(C)(C)C)c(O[C@H]2CC[C@@H](N3CCC(N4CCC(c5cnc(N6CCc7[nH]c8nnc(-c9ccccc9O)cc8c7[C@@H]6C)nc5)CC4)CC3)CC2)c1 (single isomer, unassigned)

>  <target-entity>
SMARCA4 (Homo sapiens)

>  <DC50>
> 100 nM

$$$$

Request: // lookup DC50 for Cc1ncsc1-c1ccc(CNC(=O)[C@@H]2C[C@@H](O)CN2C(=O)[C@@H](NC(=O)N2CC3(CCC(N4CCC(c5cnc(N6CCN7c8cc(-c9ccccc9O)nnc8NC[C@H]7C6)nc5)CC4)CC3)C2)C(C)(C)C)cc1
Result: 1 to 10 nM

----------
- target-entity: SMARCA2 (Homo sapiens)
- experimental-protocol: SMARCA2 Western blot degradation in MV4-11 cells
- Assay type: cell-based
- Parameters: SMARCA2/SMARCA4 protein degradation selectivity in MV4-11 cells; endogenous in cells; host or cells: MV4-11
- condition-info: MV4-11 cells, 24 h; read-out: SMARCA2 MSD MV411 degradation 24 h: Mean external-Abs DC50
measured-parameter: DC50

>  <compound>
C#Cc1ccc(CNC(=O)[C@@H]2C[C@@H](O)CN2C(=O)[C@@H](NC(=O)[C@H]2CCC3(CC2)C[C@H](N2CCC(c4cnc(N5CCN6c7cc(-c8ccccc8O)nnc7NC[C@H]6C5)nc4)CC2)C3)C(C)(C)C)c(F)c1 (single isomer, unassigned) [I-116]

>  <DC50>
0.001 to 0.01 µM

$$$$
>  <compound>
C#Cc1ccc([C@H](C)NC(=O)[C@@H]2C[C@@H](O)CN2C(=O)[C@@H](c2cc(OCCN3CCC(N4CCC(N5CCC(CN6CCN7c8cc(-c9ccccc9O)nnc8NC[C@H]7C6)CC5)CC4)CC3)no2)C(C)C)cc1 (single isomer, unassigned)

>  <DC50>
> 0.1 µM

$$$$
>  <compound>
C#Cc1ccc([C@H](C)NC(=O)[C@@H]2C[C@@H](O)CN2C(=O)[C@@H](NC(=O)N2CC3(CC(N4CCC(c5cnc(N6CCc7[nH]c8nnc(-c9ccccc9O)cc8c7[C@H]6C)nc5)CC4)C3)C2)C(C)(C)C)c(O)c1

>  <DC50>
0.001 to 0.01 µM

$$$$

// moving on: another record for DC50
Request: // lookup DC50 for C#Cc1ccc(CNC(=O)[C@@H]2C[C@@H](O)CN2C(=O)[C@@H](NC(=O)[C@H]2CCC3(CC2)C[C@H](N2CCC(N4CCC(N5CCN6c7cc(-c8ccccc8O)nnc7NC[C@H]6C5)CC4)CC2)C3)C(C)(C)C)c(Cl)c1 (single isomer, unassigned) [I-221]
Result: 0.01 to 0.1 µM
